Assay: physchem
Conditions: pH 7.6, aqueous with cosolvent or surfactant or cyclodextrin, kinetic from dmso stock
experimental endpoint: solubility

compound="COc1ccccc1N1CCN(C(=O)c2ccc3c(c2)NC(=O)C(CSCc2ccccc2C)N3)CC1 (stereo not shown)" reported_measurement="≤ 50 µM"
